Test system: N140
Run Description: qHTS profiling for inhibitors of Plasmodium falciparum proliferation (AID 504749); further: nearly all actives have a fitted effect of over 60% in size; further: potency means the concentration at half of the fitted maximal effect
Particulars: P. falciparum in erythrocytes, SYBR Green DNA, 72 h; series mostly up to 28.7 µM
Records with an inconclusive call do not appear. Activity calls are given as the source filed them. The call rests on the fitted dose curve; in most records, active means well fitted inhibition curve with a large enough effect; inconclusive means small, poorly fitted or top-dose-only effect; inactive means flat fitted curve, though single readings scatter.
Test Readout: Potency

compound="CCN1CCN(C(=O)NC(C(=O)NC2C(=O)N3C(C(=O)O)=C(CSc4nnnn4C)CSC23)c2ccc(O)cc2)C(=O)C1=O (stereo not given)" target_or_system=N140 reported=inactive
compound=CCN(CC)C(=O)[C@@]1(c2ccccc2)C[C@@H]1CN target_or_system=N140 reported=inactive
compound="CC(C)CCCC(C)C1CC(=O)C2=C3CCC4CC(O)CCC4(C)C3CCC21C (stereo not given)" target_or_system=N140 reported=inactive
compound=Clc1ccc(CS[C@@H](Cn2ccnc2)c2ccc(Cl)cc2Cl)cc1 target_or_system=N140 reported="1.41 µM (active)"
compound=C=C(NCc1ccccc1)c1ccccc1O target_or_system=N140 reported=inactive
compound="CC(c1ncncc1F)[C@](O)(Cn1cncn1)c1ccc(F)cc1F (stereo not given in full)" target_or_system=N140 reported=inactive
compound="CCOC(=O)C(CCc1ccccc1)NC(C)C(=O)N1Cc2cc(OC)c(OC)cc2CC1C(=O)O (stereo not given)" target_or_system=N140 reported="3.55 µM (active)"
compound=C[S+](C)CC[C@H](N)C(=O)O target_or_system=N140 reported=inactive
compound="C=CCn1c(=O)n(C2OC(CO)C(O)C2O)c2nc(N)[nH]c(=O)c21 (stereo not given)" target_or_system=N140 reported=inactive
compound=O=C1C(I)=CC(=C(c2cc(I)c(O)c(I)c2)c2ccccc2C(=O)O)C=C1I target_or_system=N140 reported=inactive
compound="Cc1onc(-c2c(F)cccc2Cl)c1C(=O)NC1C(=O)N2C1SC(C)(C)C2C(=O)O (stereo not given)" target_or_system=N140 reported=inactive
compound="C[C@]12C=CC(=O)N[C@@H]1CC[C@@H]1C2CC[C@]2(C)C(C(=O)Nc3cc(C(F)(F)F)ccc3C(F)(F)F)CC[C@@H]12 (stereo not given in full)" target_or_system=N140 reported=inactive
compound="CC(O)C(N)C(=O)O (stereo not given)" target_or_system=N140 reported=inactive
compound=OC[C@@H]1O[C@](CO)(O[C@H]2O[C@H](CO)[C@@H](O)[C@H](O)[C@H]2O)[C@H](O)[C@H]1O target_or_system=N140 reported=inactive
compound="CN1[C@H]2CC(OC(=O)[C@H](CO)c3ccccc3)C[C@H]1[C@H]1O[C@H]12 (stereo not given in full)" target_or_system=N140 reported=inactive
compound=O=[N+]([O-])O[C@H]1CO[C@H]2[C@@H]1OC[C@H]2O target_or_system=N140 reported=inactive
compound="CCCCC(=O)OCC(=O)[C@]1(O)Cc2c(O)c3c(c(O)c2[C@H](OC2CC(NC(=O)C(F)(F)F)C(O)C(C)O2)C1)C(=O)c1c(OC)cccc1C3=O (stereo not given in full)" target_or_system=N140 reported="2 µM (active)"
compound="CC(=O)OCC(=O)[C@@]1(O)CCC2C3CCC4=CC(=O)C=CC4(C)C3C(O)C[C@]21C (stereo not given in full)" target_or_system=N140 reported=inactive
compound="O=C1Oc2ccccc2C(=O)C1C(CC(O)c1ccc(-c2ccc(Br)cc2)cc1)c1ccccc1 (stereo not given)" target_or_system=N140 reported=inactive
compound="CCCCCCCCCCCC(=O)OCC(O)C1OCC(O)C1O (stereo not given)" target_or_system=N140 reported=inactive
compound="CN1[C@@H]2CC[C@@H]1CC(OC(=O)[C@H](CO)c1ccccc1)C2 (stereo not given in full)" target_or_system=N140 reported=inactive
compound="COC1CC2CCC(C)[C@](O)(O2)C(=O)C(=O)N2CCCCC2C(=O)OC(C(C)CC2CCC(O)C(OC)C2)CC(=O)C(C)/C=C(/C)C(O)C(OC)C(=O)C(C)CC(C)C=CC=C/C=C\\1C (stereo not given in full)" target_or_system=N140 reported="1.26 µM (active)"
compound=C=C1NC(=O)c2cc(CN(C)c3ccc(C(=O)N[C@@H](CCC(=O)O)C(=O)O)s3)ccc2N1 target_or_system=N140 reported=inactive
compound=CC[C@@]1(O)C[C@H](O[C@H]2C[C@@H](N(C)C)[C@@H](O[C@H]3C[C@@H](O)[C@@H](O[C@H]4CCC(=O)[C@@H](C)O4)[C@@H](C)O3)[C@@H](C)O2)c2c(cc3c(c2O)C(=O)c2c(O)cccc2C3=O)[C@H]1C(=O)OC target_or_system=N140 reported="0.178 µM (active)"
compound="CO/N=C(/C(=O)N[C@@H]1C(=O)N2C(C(=O)O)=C(CSC(=O)c3ccco3)CSC12)c1csc(N)n1 (stereo not given in full)" target_or_system=N140 reported=inactive
compound="CC1OC(OC2CCC3(C)C(CCC4C3CC(O)C3(C)C(C5=CC(=O)OC5)CCC43O)C2)CC(O)C1OC1CC(O)C(OC2CC(O)C(OC3OC(CO)C(O)C(O)C3O)C(C)O2)C(C)O1 (stereo not given)" target_or_system=N140 reported=inactive
compound=CCN(CC)CC(=O)Nc1c(C)cc(C)cc1C target_or_system=N140 reported=inactive
compound=CO/N=C(/C(=O)N[C@@H]1C(=O)N2C(C(=O)O)=C(CSc3nnnn3C)CS[C@H]12)c1csc(N)n1 target_or_system=N140 reported=inactive
compound="CC1(Cn2ccnn2)[C@H](C(=O)O)N2C(=O)C[C@H]2S1(=O)=O (stereo not given in full)" target_or_system=N140 reported=inactive
compound=C=C1N[C@]2(C(=O)COC(C)=O)[C@@H](C[C@H]3[C@@H]4CCC5=CC(=O)C=C[C@]5(C)[C@H]4[C@@H](O)C[C@@]32C)O1 target_or_system=N140 reported=inactive
